- test system: MERTK (UniProt Q12866)
- Sequence (Q12866 whole entry, looked up): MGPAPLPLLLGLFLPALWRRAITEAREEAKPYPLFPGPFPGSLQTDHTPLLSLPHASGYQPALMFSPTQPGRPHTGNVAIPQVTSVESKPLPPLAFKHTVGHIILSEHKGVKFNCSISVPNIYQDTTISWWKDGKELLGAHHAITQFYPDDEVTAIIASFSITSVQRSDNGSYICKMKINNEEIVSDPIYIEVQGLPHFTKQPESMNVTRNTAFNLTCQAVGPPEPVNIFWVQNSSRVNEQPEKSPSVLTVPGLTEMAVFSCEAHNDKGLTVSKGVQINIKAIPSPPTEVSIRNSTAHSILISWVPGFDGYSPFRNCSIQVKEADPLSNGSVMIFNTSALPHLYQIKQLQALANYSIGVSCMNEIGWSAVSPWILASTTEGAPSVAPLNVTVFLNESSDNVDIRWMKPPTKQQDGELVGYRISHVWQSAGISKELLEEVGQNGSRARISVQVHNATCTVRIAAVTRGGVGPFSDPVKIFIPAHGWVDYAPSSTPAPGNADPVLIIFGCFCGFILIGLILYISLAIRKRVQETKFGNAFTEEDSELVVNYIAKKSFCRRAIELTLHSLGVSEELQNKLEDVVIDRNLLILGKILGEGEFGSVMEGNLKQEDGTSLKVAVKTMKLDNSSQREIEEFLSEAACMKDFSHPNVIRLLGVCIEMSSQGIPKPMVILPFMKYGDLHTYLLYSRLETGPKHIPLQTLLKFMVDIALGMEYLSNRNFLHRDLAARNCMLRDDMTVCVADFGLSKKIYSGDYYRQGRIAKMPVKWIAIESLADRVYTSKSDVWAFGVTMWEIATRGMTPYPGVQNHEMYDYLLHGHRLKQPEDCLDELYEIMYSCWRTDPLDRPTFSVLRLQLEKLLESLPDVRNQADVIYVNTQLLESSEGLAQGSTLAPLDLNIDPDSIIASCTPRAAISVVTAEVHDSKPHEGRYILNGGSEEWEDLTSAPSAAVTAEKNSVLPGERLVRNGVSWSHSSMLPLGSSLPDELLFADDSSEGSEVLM
- assay remarks: phosphorylation enrichment, bacterial display (enrichment ratio); higher = better substrate or ligand; peptides without Tyr show the background;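 further: 11-residue human phosphosite peptides and single-mutation variants displayed on the E. coli surface, counted by deep sequencing, each peptide's frequency after selection divided by its frequency in the unselected input library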;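 further: frequency after pTyr selection over input frequency; kinase dosed for 20-30% of maximal phosphorylation in three min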

- sequence code: "TVSSDYLHPQF [CCPG1_Y569_F566S_YF]"
  test system: "MERTK (UniProt Q12866)"
  phosphorylation enrichment: 0.411
- sequence code: "GSIQQYTFKQE [PRG4_Y1271_I1272T_YF]"
  test system: "MERTK (UniProt Q12866)"
  phosphorylation enrichment: 0.322
- sequence code: "RTTKTYFPHFD [HBA1_Y43_P38R]"
  test system: "MERTK (UniProt Q12866)"
  phosphorylation enrichment: 0.87
- sequence code: "RFGKVYKGHLF [ROR2_Y488]"
  test system: "MERTK (UniProt Q12866)"
  phosphorylation enrichment: 1.02
- sequence code: "RAILLYEYVGK [NATD1_Y45_V42I]"
  test system: "MERTK (UniProt Q12866)"
  phosphorylation enrichment: 19.1
- sequence code: "RQQQDYWLIDV [ANPEP_Y600]"
  test system: "MERTK (UniProt Q12866)"
  phosphorylation enrichment: 4.02
- sequence code: "MSSLFYANALF [HOXB7_Y6_T9A_YF]"
  test system: "MERTK (UniProt Q12866)"
  phosphorylation enrichment: 1.29

---

- test system: Hck (UniProt P08631)
- Sequence (P08631 whole entry, looked up): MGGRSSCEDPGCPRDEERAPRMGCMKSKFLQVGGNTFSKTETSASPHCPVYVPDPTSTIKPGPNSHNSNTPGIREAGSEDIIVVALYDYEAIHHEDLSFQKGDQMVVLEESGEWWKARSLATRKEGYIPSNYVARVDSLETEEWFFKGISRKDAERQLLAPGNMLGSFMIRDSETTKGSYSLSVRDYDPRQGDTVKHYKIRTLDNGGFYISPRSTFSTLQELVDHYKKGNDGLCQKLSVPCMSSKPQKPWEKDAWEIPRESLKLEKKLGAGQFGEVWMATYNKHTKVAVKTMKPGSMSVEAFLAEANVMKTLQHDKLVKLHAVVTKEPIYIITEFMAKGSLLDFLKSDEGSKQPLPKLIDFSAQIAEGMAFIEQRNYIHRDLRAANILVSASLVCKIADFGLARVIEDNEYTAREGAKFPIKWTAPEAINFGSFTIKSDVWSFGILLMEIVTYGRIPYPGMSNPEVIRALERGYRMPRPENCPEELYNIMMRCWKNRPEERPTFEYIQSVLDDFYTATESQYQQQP
- assay remarks: phosphorylation enrichment, bacterial display (enrichment ratio); higher = better substrate or ligand; peptides without Tyr show the background
Listing of entries alongside the reported phosphorylation enrichment.

- sequence code: "GLSDPYVKIHL [SYT2_Y309]"
  test system: "Hck (UniProt P08631)"
  phosphorylation enrichment: 0.406
- sequence code: "ADEEFYEIIAA [FEStide_F_2014]"
  test system: "Hck (UniProt P08631)"
  phosphorylation enrichment: 3.26
- sequence code: "KMMGRYEMYAR [UPB1_Y362_T359M]"
  test system: "Hck (UniProt P08631)"
  phosphorylation enrichment: 0.51
- sequence code: "IRRIAYEFVEM [ADA_Y84_K80R]"
  test system: "Hck (UniProt P08631)"
  phosphorylation enrichment: 0.433
- sequence code: "ADARMYGVLPR [PLP1_Y207_W212R]"
  test system: "Hck (UniProt P08631)"
  phosphorylation enrichment: 3.23
- sequence code: "VGTKRYMASEV [ACVRL1_Y375_P378S]"
  test system: "Hck (UniProt P08631)"
  phosphorylation enrichment: 0.398
- sequence code: "KDHPDYKYQAR [SOX10_Y171_P175A]"
  test system: "Hck (UniProt P08631)"
  phosphorylation enrichment: 0.496
- sequence code: "DFSLKYPTDIP [APC_Y1183_A1184P_YF]"
  test system: "Hck (UniProt P08631)"
  phosphorylation enrichment: 0.46
- sequence code: "RHSGSYFVTSV [APC_Y2838_L2839F]"
  test system: "Hck (UniProt P08631)"
  phosphorylation enrichment: 0.591
- sequence code: "ICGVSYDEYRY [CFTR_Y512_F508C]"
  test system: "Hck (UniProt P08631)"
  phosphorylation enrichment: 0.633
- sequence code: "SGGSSYGSGGC [KRT1_Y532_G537C]"
  test system: "Hck (UniProt P08631)"
  phosphorylation enrichment: 0.493
- sequence code: "EEKKKYYDAKI [CASP5_Y103_T106A]"
  test system: "Hck (UniProt P08631)"
  phosphorylation enrichment: 0.411
- sequence code: "EHIEFYELDKK [PMM2_Y145_R141H]"
  test system: "Hck (UniProt P08631)"
  phosphorylation enrichment: 0.445
